# subject_of_test: human Nav1.8 (hNav1.8) ion channel (Homo sapiens)
# Construct: expressed in transfected cells
# protocol_summary: Inhibition of human Nav1.8 stably expressed in SH-SY-5Y cells (membrane potential dye fluorescence assay)
# Type: cell-based
# assay_conditions: Table 2 (compound numbers of the list in the description); SH-SY-5Y hNav1.8 cells, inhibition of membrane depolarisation, FLIPR membrane potential dye, 250 nM TTX, test concentration range 100 μM-0.05 μM; read-out: IC50
# Procedure: Inhibition of Human Nav1.8 Stably Expressed in SH-SY-5Y Cells A SH-SY-5Y neuroblastoma cell line stably expressing the human […] (hNav1.8) ion channel was constructed. […] Cell plates are incubated for 30 minutes at room temperature to allow equilibration of dye and test compound. Plates are then transferred to a fluorescence plate reader for fluorescence measurement using an excitation wavelength of 530 nm whilst measuring fluorescence emission at 565 nm. […]
Give measured IC50 for each item. Keep answers brief.
Give bare numbers, in nM.

The following molecules have reported results that may help.
[[record]]
molecule = "COc1cccc2c1CN(CC(=O)N1c3ccccc3Sc3ccc(Cl)cc31)CC2"
outcome_measure = "IC50"
recorded_value = 2090

[[record]]
molecule = "COc1cccc2c1CN(CC(=O)N(c1ccccc1)c1ccccc1)CC2"
outcome_measure = "IC50"
recorded_value = 1790

[[record]]
molecule = "Nc1cccc2c1CN(CC(=O)N1c3ccccc3Oc3ccccc31)CC2"
outcome_measure = "IC50"
recorded_value = 1530

[[record]]
molecule = "COc1ccc(C2COc3ccccc3N2C(=O)CN2CCc3cccc(OC)c3C2)cc1 (stereo not drawn)"
outcome_measure = "IC50"
recorded_value = 5060

[[record]]
molecule = "O=C(CN1Cc2cccc(O)c2C1)N1c2ccccc2Oc2ccccc21"
outcome_measure = "IC50"
recorded_value = 680


Fill in IC50 for each of the 3 molecules listed.
1. CCOc1cccc2c1CN(CC(=O)NCCCC(c1ccccc1)c1ccccc1)CC2
2. Nc1cccc2c1CN(CC(=O)NCC(c1ccccc1)c1ccccc1)CC2
3. COc1cccc2c1CN(C(C)C(=O)N1c3ccccc3Oc3ccccc31)CC2 (stereo not drawn)

[4820, 3880, 1660]

What IC50 appears in the records for this molecule with human Nav1.8 (hNav1.8) ion channel (Homo sapiens)? O=C(CNC(c1ccccc1)c1ccccc1)N1Cc2ccccc2C1 2260

---

Give measured pIC50 for each item. Keep answers brief.
# subject_of_test: human Nav1.8 (hNav1.8) ion channel (Homo sapiens, UniProt Q9Y5Y9)
# Construct: expressed in transfected cells
# Sequence (Q9Y5Y9 whole entry): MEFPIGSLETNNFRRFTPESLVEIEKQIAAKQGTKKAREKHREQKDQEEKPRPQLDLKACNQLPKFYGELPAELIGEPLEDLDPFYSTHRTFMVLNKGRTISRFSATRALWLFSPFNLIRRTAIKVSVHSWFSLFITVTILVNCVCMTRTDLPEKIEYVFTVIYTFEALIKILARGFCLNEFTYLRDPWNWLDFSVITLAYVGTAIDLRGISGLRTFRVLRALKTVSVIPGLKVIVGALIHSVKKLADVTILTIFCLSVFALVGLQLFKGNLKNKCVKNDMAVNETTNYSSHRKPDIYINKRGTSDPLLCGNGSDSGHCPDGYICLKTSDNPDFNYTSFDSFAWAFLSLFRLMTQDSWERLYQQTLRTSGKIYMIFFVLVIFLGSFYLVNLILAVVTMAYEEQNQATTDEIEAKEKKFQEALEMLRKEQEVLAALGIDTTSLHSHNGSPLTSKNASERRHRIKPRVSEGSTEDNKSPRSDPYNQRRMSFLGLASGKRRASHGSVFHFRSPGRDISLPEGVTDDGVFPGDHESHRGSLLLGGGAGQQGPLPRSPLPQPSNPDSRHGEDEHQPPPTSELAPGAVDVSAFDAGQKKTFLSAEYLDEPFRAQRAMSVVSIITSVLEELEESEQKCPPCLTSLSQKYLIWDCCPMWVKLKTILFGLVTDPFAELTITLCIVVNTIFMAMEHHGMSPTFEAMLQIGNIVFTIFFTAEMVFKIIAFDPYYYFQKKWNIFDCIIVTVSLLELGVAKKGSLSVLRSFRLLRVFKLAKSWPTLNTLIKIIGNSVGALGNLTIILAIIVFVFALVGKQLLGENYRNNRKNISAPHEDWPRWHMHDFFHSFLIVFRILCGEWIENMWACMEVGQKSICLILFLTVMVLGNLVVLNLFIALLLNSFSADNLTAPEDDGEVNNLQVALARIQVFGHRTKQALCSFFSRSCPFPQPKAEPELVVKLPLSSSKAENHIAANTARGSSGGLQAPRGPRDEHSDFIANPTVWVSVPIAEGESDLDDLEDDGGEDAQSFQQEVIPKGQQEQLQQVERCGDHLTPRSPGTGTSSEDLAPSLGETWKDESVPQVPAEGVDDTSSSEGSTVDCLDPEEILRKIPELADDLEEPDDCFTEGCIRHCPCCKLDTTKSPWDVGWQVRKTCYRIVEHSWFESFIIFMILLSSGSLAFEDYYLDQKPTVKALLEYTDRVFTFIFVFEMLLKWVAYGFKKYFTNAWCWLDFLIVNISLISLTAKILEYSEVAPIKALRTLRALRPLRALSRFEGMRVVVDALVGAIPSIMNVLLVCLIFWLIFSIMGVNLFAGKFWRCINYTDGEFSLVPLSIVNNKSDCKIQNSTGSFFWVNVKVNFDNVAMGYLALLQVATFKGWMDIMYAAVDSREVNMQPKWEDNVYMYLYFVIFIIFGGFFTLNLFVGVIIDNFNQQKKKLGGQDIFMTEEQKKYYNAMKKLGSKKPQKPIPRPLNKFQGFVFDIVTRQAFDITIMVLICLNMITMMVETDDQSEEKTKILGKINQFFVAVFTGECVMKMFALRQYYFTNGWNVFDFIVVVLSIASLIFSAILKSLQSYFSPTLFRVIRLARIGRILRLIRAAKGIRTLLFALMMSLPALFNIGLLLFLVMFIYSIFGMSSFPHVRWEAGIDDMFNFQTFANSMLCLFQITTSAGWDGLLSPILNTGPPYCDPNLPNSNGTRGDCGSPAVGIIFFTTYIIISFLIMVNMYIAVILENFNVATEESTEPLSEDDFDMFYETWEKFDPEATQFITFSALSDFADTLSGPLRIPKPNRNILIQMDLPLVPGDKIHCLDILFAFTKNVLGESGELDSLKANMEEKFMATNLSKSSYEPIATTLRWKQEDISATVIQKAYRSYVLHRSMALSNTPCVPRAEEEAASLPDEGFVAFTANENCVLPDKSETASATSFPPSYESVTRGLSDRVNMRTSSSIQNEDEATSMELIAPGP
# protocol_summary: Inhibition of human Nav1.8 stably expressed in SH-SY-5Y cells (membrane potential dye fluorescence assay)
# Assay type: cell-based
# assay_conditions: Table 2 (compound numbers of the list in the description); SH-SY-5Y hNav1.8 cells, inhibition of membrane depolarisation, FLIPR membrane potential dye, 250 nM TTX, test concentration range 100 μM-0.05 μM; read-out: IC50
One number for each entry, as −log10 of the molar value.

The following compounds have reported results that may help.
[[record]]
compound = "COc1cc2c(cc1OC)CN(CC(=O)NCCCC(c1ccccc1)c1ccccc1)CC2 [Compound 124]"
subject_of_test = "human Nav1.8 (hNav1.8) ion channel (Homo sapiens, UniProt Q9Y5Y9)"
recorded_value = 6.23

[[record]]
compound = "COc1cccc2c1CN(CCC(=O)NCCC(c1ccc(F)cc1)c1ccc(F)cc1)CC2 [Compound 166]"
subject_of_test = "human Nav1.8 (hNav1.8) ion channel (Homo sapiens, UniProt Q9Y5Y9)"
recorded_value = 6.46

[[record]]
compound = "COc1cccc2c1CN(CC(=O)N(C(C)C)C(C)C)CC2 [Compound 78]"
subject_of_test = "human Nav1.8 (hNav1.8) ion channel (Homo sapiens, UniProt Q9Y5Y9)"
recorded_value = 4.54

[[record]]
compound = "COc1cc2c(cc1OC)CN(CCNC(=O)NC(c1ccccc1)c1ccccc1)CC2 [Compound 136]"
subject_of_test = "human Nav1.8 (hNav1.8) ion channel (Homo sapiens, UniProt Q9Y5Y9)"
recorded_value = 5.68

[[record]]
compound = "COc1cc2c(cc1OC)CN(CC(=O)N1c3ccccc3Sc3ccc(C(C)=O)cc31)CC2 [Compound 155]"
subject_of_test = "human Nav1.8 (hNav1.8) ion channel (Homo sapiens, UniProt Q9Y5Y9)"
recorded_value = 5.20

[[record]]
compound = "O=C(CN1c2ccccc2Oc2ccccc21)N1Cc2ccccc2C1 [Compound 218]"
subject_of_test = "human Nav1.8 (hNav1.8) ion channel (Homo sapiens, UniProt Q9Y5Y9)"
recorded_value = 4.89

[[record]]
compound = "O=C(CN1Cc2ccccc2C1)NCCC(c1ccccc1)c1ccccc1 [Example 40]"
subject_of_test = "human Nav1.8 (hNav1.8) ion channel (Homo sapiens, UniProt Q9Y5Y9)"
recorded_value = 6.28

[[record]]
compound = "COc1cccc2c1CN(CC(=O)Nc1ccccc1Oc1ccccc1)CC2 [Compound 184]"
subject_of_test = "human Nav1.8 (hNav1.8) ion channel (Homo sapiens, UniProt Q9Y5Y9)"
recorded_value = 4.96

[[record]]
compound = "CC(=O)Nc1ccc(C(CCNC(=O)CN2CCc3ccccc3C2)c2ccccc2)cc1NC(C)=O (stereo not drawn) [Compound 116]"
subject_of_test = "human Nav1.8 (hNav1.8) ion channel (Homo sapiens, UniProt Q9Y5Y9)"
recorded_value = 4.65

[[record]]
compound = "CCC1COc2ccccc2N1C(=O)CN1CCc2cccc(OC)c2C1 (stereo not drawn) [Compound 208]"
subject_of_test = "human Nav1.8 (hNav1.8) ion channel (Homo sapiens, UniProt Q9Y5Y9)"
recorded_value = 5.77


Fill in pIC50 for each of the 2 compounds listed.
1. O=C(CN1CCc2cccc(O)c2C1)N1c2ccccc2Sc2ccc(Cl)cc21 [Compound 141]
2. O=C(CN1Cc2ccccc2C1)N1c2ccccc2Oc2ccccc21 [Compound 178]

1. 5.73
2. 6.21

---

# subject_of_test: human Nav1.8 (hNav1.8) ion channel (Homo sapiens, UniProt Q9Y5Y9)
# Construct: expressed in transfected cells
# protocol_summary: Inhibition of human Nav1.8 stably expressed in SH-SY-5Y cells (membrane potential dye fluorescence assay)
# Assay type: cell-based
# assay_conditions: IC50, Table 1; SH-SY-5Y hNav1.8 cells, inhibition of membrane depolarisation, FLIPR membrane potential dye, 250 nM TTX, test concentration range 100 μM-0.05 μM
Give measured pIC50 for each item. Keep answers brief.
Give bare numbers, as −log10 of the molar value.

[[record]]
compound = "O=C(CN1CCc2cccc(O)c2C1)N(Cc1ccccc1)c1ccccc1 [Example 25]"
recorded_value = 5.97

[[record]]
compound = "Cc1cnc(C(C)NC(=O)CN2CCc3cccc(O)c3C2)s1 (stereo not drawn) [Example 29]"
recorded_value = 4.83


We now examine a further compound.
What pIC50 appears in the records for this compound with human Nav1.8 (hNav1.8) ion channel (Homo sapiens, UniProt Q9Y5Y9)? O=C(CN1CCc2cccc(O)c2C1)NCCC(c1ccccc1)c1ccccc1 [Example 27] 5.99

---

# subject_of_test: human Nav1.8 (hNav1.8) ion channel (Homo sapiens, UniProt Q9Y5Y9)
# Construct: expressed in transfected cells
# protocol_summary: Inhibition of human Nav1.8 stably expressed in SH-SY-5Y cells (membrane potential dye fluorescence assay)
# Assay type: cell-based
# assay_conditions: Table 2 (compound numbers of the list in the description); SH-SY-5Y hNav1.8 cells, inhibition of membrane depolarisation, FLIPR membrane potential dye, 250 nM TTX, test concentration range 100 μM-0.05 μM; read-out: IC50
pIC50: −log10 of the molar value.
Rule: pIC50 of 6 or more gives Met; anything lower gives Not met.

Could you please find out whether COc1cccc2c1CN(CC(=O)N1c3ccccc3OCC1C(C)(C)C)CC2 (stereo not drawn) [Compound 206] has pIC50 that meets 6 or exceeds it? Not met

Could you please find out whether COc1cc2c(cc1OC)CN(CC(=O)N1c3ccccc3Sc3ccc(Cl)cc31)CC2 [Compound 153] has pIC50 that meets 6 or exceeds it? Not met

Could you please find out whether O=C(NCCN1CCc2cccnc2C1)N1c2ccccc2Oc2ccccc21 [Compound 201] has pIC50 that meets 6 or exceeds it? Not met

---

Give measured log10 IC50 for each item. Keep answers brief.
# subject_of_test: human Nav1.8 (hNav1.8) ion channel (Homo sapiens, UniProt Q9Y5Y9)
# Construct: expressed in transfected cells
# protocol_summary: Inhibition of human Nav1.8 stably expressed in SH-SY-5Y cells (membrane potential dye fluorescence assay)
# Assay type: cell-based
# assay_conditions: Table 1; SH-SY-5Y hNav1.8 cells, inhibition of membrane depolarisation, FLIPR membrane potential dye, 250 nM TTX, test concentration range 100 μM-0.05 μM; read-out: IC50
Note: values are log10 of IC50 expressed in nM.

[[record]]
molecule = "COc1cccc2c1CN(C(=O)CN(CC(=O)N1CCc3cccc(OC)c3C1)CC(c1ccccc1)c1ccccc1)CC2 [Example 36]"
recorded_value = 3.45

[[record]]
molecule = "c1ccc(CN(CCN2CCc3ccccc3C2)Cc2ccccc2)cc1 [Example 47]"
recorded_value = 2.67

[[record]]
molecule = "COc1cccc2c1CN(CC(c1ccccc1)c1ccccc1)CC2 [Example 13]"
recorded_value = 3.14

[[record]]
molecule = "COc1ccc2c(c1)CN(CC(=O)NCCC(c1ccccc1)c1ccccc1)CC2 [Example 86]"
recorded_value = 3.16

[[record]]
molecule = "COc1cccc2c1CN(CC(=O)NC(c1ccccc1)c1ccccn1)CC2 (stereo not shown) [Example 69]"
recorded_value = 3.95

[[record]]
molecule = "Oc1cccc2c1CN(Cc1cc(F)ccc1F)CC2 [Example 92]"
recorded_value = 3.72

[[record]]
molecule = "Cc1cc(C(C)(CCCN2CCc3cccc(O)c3C2)c2cc(C)c(O)c(C)c2)cc(C)c1O [Example 97]"
recorded_value = 3.03

[[record]]
molecule = "O=C(CN1CCc2ccccc2C1)N1CCN(C(c2ccccc2)c2ccccc2)CC1 [Example 64]"
recorded_value = 3.50


Fill in log10 IC50 for each of the 8 molecules listed.
1. O=C(CN(Cc1ccccc1)Cc1ccccc1)N1CCc2ccccc2C1 [Example 35]
2. Oc1cccc2c1CN(Cc1cc(F)cc(F)c1)CC2 [Example 93]
3. O=C(CN1CCc2cccc(O)c2C1)NC(c1ccccc1)c1ccccc1 [Example 24]
4. O=C(CNCCC(c1ccccc1)c1ccccc1)N1CCc2ccccc2C1 [Example 34]
5. Oc1cccc2c1CN(Cc1n[nH]nc1-c1ccccc1)CC2 [Example 45]
6. O=C(CN1CCc2ccccc2C1)N(Cc1ccccc1)Cc1ccccc1 [Example 16]
7. COc1cccc2c1CN(C(=O)CON=C(c1ccccc1)c1ccccc1)CC2 [Example 43]
8. O=C(CN1CCc2ccccc2C1)NC(c1ccccc1)c1ccccc1 [Example 14]

[3.69, 3.67, 3.18, 2.28, 3.86, 2.94, 3.22, 3.20]

Fill in log10 IC50 for each of the 3 molecules listed.
1. CC(CN1CCc2cccc(O)c2C1)OCc1ccccc1 (stereo not shown) [Example 48]
2. Oc1cccc2c1CN(CCCC(c1ccc(F)cc1)c1ccc(F)cc1)CC2 [Example 96]
3. c1ccc(C(CCNCCN2CCc3ccccc3C2)c2ccccc2)cc1 [Example 46]

1. 3.68
2. 3.29
3. 2.46
